System: S. epidermidis
Test: Tier 1 Anaerobic MIC Assay
Type: cell-based, Staphylococcus epidermidis (clinical isolate)
Details: Staphylococcus epidermidis; anaerobic, 37° C. overnight, O.D. 600; read-out: microbial inhibition concentration (MIC)
Counter-ions that a name gives are not always drawn.
parameter: MIC (µg/mL)
One number for each entry, in µg/mL.

Consider the reported MIC for these compounds:
* Cc1cc(CC(C)CC(C)(C)C)n(O)c(=O)c1.NCCO (centres unmarked) [piroctone olamine, reference compound] | 10
* CCOC(=O)CC(O)(CC(=O)OCC)C(=O)OCC [triethyl citrate] | 1600
* CCCCC/C=C\C/C=C\CCCCCCCC(=O)O | 3120

Continue with the compound presented below.
May I ask what MIC has been recorded for CC/C=C\C/C=C\C/C=C\CCCCCCCC(=O)O ?
1090

###

Test system: C. mucofaciens
Assay: Tier 1 Anaerobic MIC Assay
Assay type: cell-based, Corynebacterium mucofaciens (clinical isolate)
Settings: anaerobic, 37° C. overnight, O.D. 600
Exercise: for every item that follows, state its recorded microbial inhibition concentration (MIC).

Need microbial inhibition concentration (MIC) for each of these molecules.
1. [Cl-].[Na+] [NaCl]
2. O=C([O-])[O-].[Ca+2] [calcium carbonate]
3. [Ca+2].[Cl-].[Cl-] [CaCl]

1: >25000 ppm; 2: >2500 ppm; 3: >50000 ppm
